Reference source for all entries: ChEMBL document CHEMBL5252638

Test: Selectivity index, ratio of IC50 for human WI-38 cells to IC50 for human A549 cells
Type: toxicity
Settings: WI-38 cells and A549 cells, read-out: Ratio IC50
test readout: selectivity ratio

Query: Return reported selectivity ratio; argument: C=C(C)[C@@H]1CC[C@]2(COCC(O)COC(=O)CCCC[P+](c3ccccc3)(c3ccccc3)c3ccccc3)CC[C@]3(C)[C@H](CC[C@@H]4[C@@]5(C)CC[C@H](O)C(C)(C)[C@@H]5CC[C@]43C)[C@@H]12 (stereo partly specified)
Reply: 1.5

---

Would you kindly list IC50 at 48 h for each of these compounds?
Experiment: Cytotoxicity against human WI-38 cells assessed as number of viable cells measured after 48 hrs by MTT based colorimetric assay
Type: toxicity, cell-based
Write the answer as a number in µM, unit excluded.

Query: State the recorded IC50 at 48 h for this entry: CCCCC/C=C\C/C=C\CCCCCCCC(=O)OCC(COC(=O)CCCC[P+](c1ccccc1)(c1ccccc1)c1ccccc1)OC(=O)CCCC[P+](c1ccccc1)(c1ccccc1)c1ccccc1 (centres undefined)
Reply: 41.1

Query: Another compound: CC(C)C1=CC2=CC[C@@H]3[C@](C)(CCC[C@@]3(C)C(=O)OCC(O)COC(=O)CCCC[P+](c3ccccc3)(c3ccccc3)c3ccccc3)[C@H]2CC1 (some centres undefined)
Reply: 24.2

Query: Note, next up: C=C(C)[C@@H]1CC[C@]2(COC(=O)CCC(=O)OC(COC(=O)CCCCCCC/C=C\CCCCCCCC)COC(=O)CCCC[P+](c3ccccc3)(c3ccccc3)c3ccccc3)CC[C@]3(C)[C@H](CC[C@@H]4[C@@]5(C)CC[C@H](O)C(C)(C)[C@@H]5CC[C@]43C)[C@@H]12.[Br-] (some centres undefined)
Reply: 36.3

Query: Same again, this time with COc1cccc2c1C(=O)c1c(O)c3c(c(O)c1C2=O)C[C@@](O)(C(=O)CO)C[C@@H]3O[C@H]1C[C@H](N)[C@H](O)[C@H](C)O1 [DOXORUBICIN]
Reply: 0.4

Query: Here is the next compound: CCCCCCCC/C=C\CCCCCCCC(=O)OCC(O)COC(=O)CCCC[P+](c1ccccc1)(c1ccccc1)c1ccccc1.[Br-] (centres undefined)
Reply: 53.1

Query: How about this compound: CCCCC/C=C\C/C=C\CCCCCCCC(=O)OCC(O)COC(=O)CCCC[P+](c1ccccc1)(c1ccccc1)c1ccccc1.[Br-] (centres undefined)
Reply: 56.6

Query: Another: CCCCC/C=C\C/C=C\CCCCCCCC(=O)OC(COC(=O)CCCCCCC/C=C\CCCCCCCC)COC(=O)CCCC[P+](c1ccccc1)(c1ccccc1)c1ccccc1 (centres undefined)
Reply: 40

Query: // repeat for O=c1[nH]cc(F)c(=O)[nH]1 [FLUOROURACIL] and report
Reply: 62

Query: Request: C=C(C)[C@@H]1CC[C@]2(COCC(O)COC(=O)CCCC[P+](c3ccccc3)(c3ccccc3)c3ccccc3)CC[C@]3(C)[C@H](CC[C@@H]4[C@@]5(C)CC[C@H](O)C(C)(C)[C@@H]5CC[C@]43C)[C@@H]12 (some centres undefined)
Reply: 4.7
